system: Interleukin-8 receptors, CXCR1/CXCR2 (Homo sapiens, UniProt P25025+P25024)
testName: Inhibition against GRO-alpha driven human neutrophil chemotaxis
Type: functional
Collected IC50 values appear next to each entry.
Output spec: scalar in µM, unitless text.

Field: example entries. Status: answers known.
[
  {
    "mol": "O=C(COc1ccc(C(=O)Nc2ccc(F)cc2)cn1)OCCCCC1CCCCC1",
    "system": "Interleukin-8 receptors, CXCR1/CXCR2 (Homo sapiens, UniProt P25025+P25024)",
    "IC50 (µM)": 0.68
  },
  {
    "mol": "O=C(COc1ccc(C(=O)Nc2ccc(F)cc2)cn1)Nc1cccc(Br)c1",
    "system": "Interleukin-8 receptors, CXCR1/CXCR2 (Homo sapiens, UniProt P25025+P25024)",
    "IC50 (µM)": 2.7
  },
  {
    "mol": "O=C(COc1ccc(C(=O)Nc2ccc(F)cc2)cn1)Nc1ccccc1",
    "system": "Interleukin-8 receptors, CXCR1/CXCR2 (Homo sapiens, UniProt P25025+P25024)",
    "IC50 (µM)": 1
  }
]

Continue with the compound presented below.
Entry O=C(COc1ccc(C(=O)Nc2ccc(F)cc2)cn1)OCc1ccccc1 ; IC50 = 0.094

----------
system: Interleukin-8 receptors, CXCR1/CXCR2 (Homo sapiens, UniProt P25025+P25024)
Sequence (P25025 whole entry): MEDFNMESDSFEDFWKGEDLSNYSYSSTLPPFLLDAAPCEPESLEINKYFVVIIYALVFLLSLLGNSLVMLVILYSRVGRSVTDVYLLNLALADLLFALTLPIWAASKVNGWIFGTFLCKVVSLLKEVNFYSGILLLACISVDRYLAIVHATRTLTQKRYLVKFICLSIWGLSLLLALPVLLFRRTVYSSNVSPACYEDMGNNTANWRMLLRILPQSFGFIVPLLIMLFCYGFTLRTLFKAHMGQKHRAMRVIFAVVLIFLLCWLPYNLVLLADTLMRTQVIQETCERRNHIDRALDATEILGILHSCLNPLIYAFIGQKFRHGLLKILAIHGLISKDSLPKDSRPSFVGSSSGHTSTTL
Sequence (P25024 whole entry): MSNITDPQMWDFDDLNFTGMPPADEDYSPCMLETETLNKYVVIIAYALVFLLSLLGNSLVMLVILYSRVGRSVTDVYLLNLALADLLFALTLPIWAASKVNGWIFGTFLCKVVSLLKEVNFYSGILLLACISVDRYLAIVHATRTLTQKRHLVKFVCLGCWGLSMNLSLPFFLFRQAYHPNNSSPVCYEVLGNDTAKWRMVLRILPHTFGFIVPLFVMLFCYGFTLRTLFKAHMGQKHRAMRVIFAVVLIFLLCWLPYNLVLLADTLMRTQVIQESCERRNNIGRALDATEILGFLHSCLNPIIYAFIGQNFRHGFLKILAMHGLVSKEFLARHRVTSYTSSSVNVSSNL
testName: Inhibition against GRO-alpha driven human neutrophil chemotaxis
Format: functional
quantityName: IC50

Example compounds with recorded IC50:
[
  {
    "mol": "O=C(O)CSc1ccc(C(=O)Nc2ccc(F)cc2)cn1",
    "IC50": "> 20 µM"
  },
  {
    "mol": "O=C(O)CCSc1ccc(C(=O)Nc2ccc(F)cc2)cn1",
    "IC50": "> 20 µM"
  }
]

Moving on to another compound below.
Reported IC50 ( CNC(=O)COc1ccc(C(=O)Nc2ccc(F)cc2)cn1 ) = > 20 µM

The measured values listed here are drawn from ChEMBL document CHEMBL1135131.
